- SYSTEM_UNDER_TEST: Drosophila OR71a (Drosophila melanogaster, UniProt Q9VUK5)
- Construct: expressed in transfected cells
- Sequence (Q9VUK5 whole entry, one chain of several): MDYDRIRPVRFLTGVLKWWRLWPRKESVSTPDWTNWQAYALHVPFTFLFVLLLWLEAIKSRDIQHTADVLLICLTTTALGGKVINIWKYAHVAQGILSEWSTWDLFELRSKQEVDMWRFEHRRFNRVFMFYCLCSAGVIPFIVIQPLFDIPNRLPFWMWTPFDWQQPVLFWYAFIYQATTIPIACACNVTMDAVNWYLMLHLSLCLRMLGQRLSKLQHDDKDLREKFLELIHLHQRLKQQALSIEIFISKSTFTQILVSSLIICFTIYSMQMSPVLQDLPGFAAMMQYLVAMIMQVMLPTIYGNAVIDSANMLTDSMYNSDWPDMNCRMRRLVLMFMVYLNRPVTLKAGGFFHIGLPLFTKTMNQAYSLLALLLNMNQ
- METHOD_DESCRIPTION: Calcium ion fluorescence (GCaMP6) assay, OR71a stable HEK293 cell line
- Type: cell-based
- PARTICULARS: concentration 1; normalized fluorescence change, values below 0.05 threshold given as 0
Measured DF norm AVERAGE OR71a accompanies every entry in the list below.
// no unit string in output, number only

Cc1cccc(O)c1: 0

Looking up CCCCC(C)O (stereo not shown) , I see its DF norm AVERAGE OR71a listed as 0

The value of DF norm AVERAGE OR71a measured for the compound CCCCCCCCC(CO)CCCCCC (stereo not shown) turned out to be 0

Lab note: Cc1ccc(C)c(C)c1 gave DF norm AVERAGE OR71a of 0

GET /value?item= C=C(C)[C@H]1CC=C(C)CC1 [(R)-(+)-limonene] &field=DF norm AVERAGE OR71a returns 0

Looking up Cc1ccc(O)cc1 , I found its DF norm AVERAGE OR71a recorded as 0

response.value for CCCCCC(O)CC (stereo not shown) (field: DF norm AVERAGE OR71a) = 0

====

- SYSTEM_UNDER_TEST: Drosophila OR85b (Drosophila melanogaster, UniProt Q9VHQ7)
- Construct: expressed in transfected cells
- Sequence (Q9VHQ7 whole entry, one chain of several): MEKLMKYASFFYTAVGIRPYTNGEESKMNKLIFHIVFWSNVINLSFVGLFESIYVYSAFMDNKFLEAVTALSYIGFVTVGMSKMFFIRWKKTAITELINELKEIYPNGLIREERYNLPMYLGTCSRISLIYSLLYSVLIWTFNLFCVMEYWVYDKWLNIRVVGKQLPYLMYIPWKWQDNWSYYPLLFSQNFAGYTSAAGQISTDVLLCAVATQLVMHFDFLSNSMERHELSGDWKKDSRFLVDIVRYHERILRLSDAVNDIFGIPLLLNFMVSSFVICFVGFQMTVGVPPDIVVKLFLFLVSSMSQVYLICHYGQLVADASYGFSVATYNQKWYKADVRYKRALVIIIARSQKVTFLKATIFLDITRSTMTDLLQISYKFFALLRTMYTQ
- METHOD_DESCRIPTION: Calcium ion fluorescence (GCaMP6) assay, OR85b stable HEK293 cell line
- Type: cell-based
- PARTICULARS: HEK293, read-out: OR85b response (VUAA1-normalized response)
QUANTITY_MEASURED: activation at 1 µM (%)
Numbers only here, please. The scale is %.

Observe how each entry below is paired with its result.
CC1=CC[C@@H](C(C)(C)O)CC1: 0
CCOC(=O)c1ccccc1 [ethyl benzoate]: 0
CCCCCC(=O)OCC [ethyl hexanoate]: 0
C=CC(O)C/C=C\CC (stereo not shown): 7
O=Cc1ccccc1: 6

# lookup: CCCCCC(O)CC (stereo not shown) on Drosophila OR85b (Drosophila melanogaster, UniProt Q9VHQ7), activation at 1 µM = 0

The compound CC(=O)c1ccccc1 on Drosophila OR85b (Drosophila melanogaster, UniProt Q9VHQ7): activation at 1 µM was 0

Observed activation at 1 µM on Drosophila OR85b (Drosophila melanogaster, UniProt Q9VHQ7), entry CCCC(O)CC (stereo not shown) , equals 0

Param item: CC1=CCC2CC1C2(C)C (stereo not shown) ; param system: Drosophila OR85b (Drosophila melanogaster, UniProt Q9VHQ7); output activation at 1 µM: 0

Per the reported Drosophila OR85b (Drosophila melanogaster, UniProt Q9VHQ7) data, CCCCCC(C)O (stereo not shown) has activation at 1 µM of 0

Field activation at 1 µM (Drosophila OR85b (Drosophila melanogaster, UniProt Q9VHQ7)), entry CCCCC(C)O (stereo not shown) : 0

Hey, Drosophila OR85b (Drosophila melanogaster, UniProt Q9VHQ7) data for CCOC(=O)CC [ethyl propionate] : activation at 1 µM came out at 0

Tested system Drosophila OR85b (Drosophila melanogaster, UniProt Q9VHQ7); activation at 1 µM recorded for CCCCCCCO was 0

Field activation at 1 µM (system: Drosophila OR85b (Drosophila melanogaster, UniProt Q9VHQ7)) for entry CCCC(=O)OCC [ethyl butyrate] = 0

Hey, Drosophila OR85b (Drosophila melanogaster, UniProt Q9VHQ7) data for CCCCCO : activation at 1 µM came out at 0

activation at 1 µM for Drosophila OR85b (Drosophila melanogaster, UniProt Q9VHQ7) with input Cc1ccc(C)c(C)c1 equals 0

Simply: C=CC(O)CCCCC (stereo not shown) , Drosophila OR85b (Drosophila melanogaster, UniProt Q9VHQ7), activation at 1 µM = 0

====

- SYSTEM_UNDER_TEST: Drosophila OR98a (Drosophila melanogaster, UniProt Q9VAZ3)
- Construct: expressed in transfected cells
- Sequence (Q9VAZ3 whole entry, one chain of several): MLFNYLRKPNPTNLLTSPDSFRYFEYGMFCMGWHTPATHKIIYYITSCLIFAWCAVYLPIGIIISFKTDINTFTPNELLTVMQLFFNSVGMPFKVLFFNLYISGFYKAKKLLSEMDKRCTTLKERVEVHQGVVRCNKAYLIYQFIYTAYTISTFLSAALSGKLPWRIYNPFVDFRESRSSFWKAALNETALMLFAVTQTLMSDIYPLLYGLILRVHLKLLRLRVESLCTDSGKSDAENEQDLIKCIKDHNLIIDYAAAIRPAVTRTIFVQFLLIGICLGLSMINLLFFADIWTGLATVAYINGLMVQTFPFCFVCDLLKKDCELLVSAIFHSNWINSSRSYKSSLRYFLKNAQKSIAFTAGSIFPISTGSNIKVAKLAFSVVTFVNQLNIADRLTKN
- METHOD_DESCRIPTION: Calcium ion fluorescence (GCaMP6) assay, OR98a stable HEK293 cell line
- Type: cell-based
- PARTICULARS: ligand concentration 10 (unit not given); 0.05 threshold, values below shown as 0
DF norm AVERAGE OR98a: recorded values
// keep it numeric: no unit symbol after the value

Previously resolved entries follow.
CCCCCCCCCCC: 0
CCCCCCCCCCCCCC: 0.1151
CC1=CCC23CC1C(C)(C)C2CCC3C (stereo not shown): 0.08582
CC/C=C\CCO: 0.167
C=Cc1ccccc1: 0
Cc1ccccc1: 0

Here is the next item to consider.
Entry CC/C=C\CCOC(C)=O [z3-hexenyl acetate] , DF norm AVERAGE OR98a reported as 0

====

The entries below come with measured OR49b response (VUAA1-normalized) at 100 μM values attached.
- SYSTEM_UNDER_TEST: Drosophila OR49b (Drosophila melanogaster)
- Construct: expressed in transfected cells
- Sequence (Q9V6H2 whole entry, one chain of several): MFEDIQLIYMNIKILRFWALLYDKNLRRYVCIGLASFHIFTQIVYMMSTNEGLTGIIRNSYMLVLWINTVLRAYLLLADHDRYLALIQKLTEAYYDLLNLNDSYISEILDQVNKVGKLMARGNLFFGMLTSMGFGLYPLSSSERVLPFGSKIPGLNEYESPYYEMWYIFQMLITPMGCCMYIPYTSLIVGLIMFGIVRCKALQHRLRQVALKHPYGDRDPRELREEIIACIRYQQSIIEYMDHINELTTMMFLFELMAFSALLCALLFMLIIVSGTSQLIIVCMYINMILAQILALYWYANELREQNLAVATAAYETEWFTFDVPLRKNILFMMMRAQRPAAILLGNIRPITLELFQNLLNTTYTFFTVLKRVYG
- METHOD_DESCRIPTION: cell-based
- PARTICULARS: OR49b cell line, VOC concentration 100 μM
Quick one: just the number, no unit, thanks!

Cc1ccc(C(C)C)cc1 [p-cymene] on Drosophila OR49b (Drosophila melanogaster) gives OR49b response (VUAA1-normalized) at 100 μM = 0.00

Item: C=C1CCC2(C(C)C)CC12 (stereo not shown) [sabinene] | System: Drosophila OR49b (Drosophila melanogaster) | OR49b response (VUAA1-normalized) at 100 μM: 0.00

Form field OR49b response (VUAA1-normalized) at 100 μM for item CCCCCOC(C)=O [pentyl acetate] on Drosophila OR49b (Drosophila melanogaster): 0.06

Tested system Drosophila OR49b (Drosophila melanogaster); OR49b response (VUAA1-normalized) at 100 μM recorded for COC(=O)c1ccccc1 [methyl benzoate] was 0.00

Record CC/C=C\CCOC(C)=O [Z-3-hexenyl acetate] has Drosophila OR49b (Drosophila melanogaster) OR49b response (VUAA1-normalized) at 100 μM equal to 0.00

# value of OR49b response (VUAA1-normalized) at 100 μM, Drosophila OR49b (Drosophila melanogaster), item COC(=O)c1ccccc1O [methyl salicylate] = 0.12

Param item: CC/C=C\CCO [Z-3-hexenol] ; param system: Drosophila OR49b (Drosophila melanogaster); output OR49b response (VUAA1-normalized) at 100 μM: 0.00

====

In this section, each of the molecules is paired with its reported activity at 10 µM.
- SYSTEM_UNDER_TEST: Drosophila OR13a (Drosophila melanogaster, UniProt Q9VXL0)
- Construct: expressed in transfected cells
- Sequence (Q9VXL0 1-418): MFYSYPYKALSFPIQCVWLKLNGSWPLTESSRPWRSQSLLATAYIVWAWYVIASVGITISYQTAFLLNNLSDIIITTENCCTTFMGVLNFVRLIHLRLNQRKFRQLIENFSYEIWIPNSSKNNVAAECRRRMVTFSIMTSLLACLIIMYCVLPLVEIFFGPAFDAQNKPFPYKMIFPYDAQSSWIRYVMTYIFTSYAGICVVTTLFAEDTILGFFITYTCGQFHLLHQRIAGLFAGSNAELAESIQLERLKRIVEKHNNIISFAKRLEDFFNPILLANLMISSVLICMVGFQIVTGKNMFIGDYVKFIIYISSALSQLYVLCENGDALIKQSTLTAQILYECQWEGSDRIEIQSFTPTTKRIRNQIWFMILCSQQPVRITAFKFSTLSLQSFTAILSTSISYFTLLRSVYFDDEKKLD
- Sequence (Q9VNB5 1-486 partner): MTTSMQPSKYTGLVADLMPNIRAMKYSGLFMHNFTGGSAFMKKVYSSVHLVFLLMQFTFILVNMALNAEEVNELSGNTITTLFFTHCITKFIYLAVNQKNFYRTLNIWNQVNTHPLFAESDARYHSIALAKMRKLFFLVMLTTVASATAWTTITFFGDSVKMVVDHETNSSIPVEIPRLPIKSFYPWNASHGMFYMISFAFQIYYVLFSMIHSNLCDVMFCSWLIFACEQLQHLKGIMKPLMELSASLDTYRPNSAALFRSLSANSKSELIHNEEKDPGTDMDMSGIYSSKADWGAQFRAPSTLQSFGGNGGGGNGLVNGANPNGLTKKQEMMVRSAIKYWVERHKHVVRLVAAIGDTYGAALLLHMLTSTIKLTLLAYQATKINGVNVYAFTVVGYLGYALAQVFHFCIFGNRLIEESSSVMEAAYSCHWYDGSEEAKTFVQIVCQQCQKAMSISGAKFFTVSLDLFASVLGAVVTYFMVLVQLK
- METHOD_DESCRIPTION: cell-based
- Parameters: GCaMP6 calcium fluorescence in stable HEK293 OR+ORCO lines; peak dF normalised to 50 uM VUAA1 (=1)
- PARTICULARS: HEK293; relative to 50 uM VUAA1 response; below 0.05 set to 0; read-out: % activation
Enter your answer as a number in %; do not include the unit.

C=C(C)[C@H]1CC=C(C)CC1 [(R)-(+)-limonene]: 0
C=C(C)C1CCC2(C)OC2C1 (single isomer, unassigned; (+)) [(+)-limonene oxide]: 0
C=C1[C@H]2CC[C@@H]3[C@H]2C(C)(C)CCC[C@]13C [(+)-longifolene]: 0

Consider now this further molecule.
Lab entry: Drosophila OR13a (Drosophila melanogaster, UniProt Q9VXL0) assay, molecule C=C1CC[C@@]23C[C@@H]1C(C)(C)[C@@H]2CC[C@H]3C [(+)-beta-cedrene] , activity at 10 µM = 0
